TESTED_SYSTEM: NS3 protease (Hepatitis C virus)
EXPERIMENT_SUMMARY: Inhibitory activity against HCV protease in enzyme inhibition assay
EXPERIMENTAL_READOUT: Ki (nM)
Please give a number only; it is taken to be in nM.

Item under review: "CC(C)[C@H](NC(=O)c1cnccn1)C(=O)N[C@H](C(=O)N1C[C@@H]2CCC[C@@H]2[C@H]1C(=O)N[C@@H](CC(F)F)C(=O)C(=O)N[C@@H](C)c1ccccc1)C(C)C" . Reported Ki?
400

---

TESTED_SYSTEM: NS3 protease (Hepatitis C virus)
EXPERIMENT_SUMMARY: Binding affinity towards Protease using PNA assay
Would you kindly list Ki for each of these compounds?
Field format: number, assumed nM, no unit text.

What Ki value was documented for this compound, CCC(C)NC(=O)C(=O)[C@H](CC(F)F)NC(=O)[C@@H]1[C@H]2CCC[C@H]2CN1C(=O)[C@@H](NC(=O)[C@@H](NC(=O)c1cnccn1)C(C)C)C(C)(C)C (some centres undefined) ?
480

Now try "CC(C)[C@H](NC(=O)c1cnccn1)C(=O)N[C@H](C(=O)N1C[C@@H]2CCC[C@@H]2[C@H]1C(=O)N[C@@H](CC(F)F)C(=O)C(=O)N[C@@H](C)c1ccccc1)C(C)(C)C" .
120

Item: CC(C)[C@H](NC(=O)c1cnccn1)C(=O)N[C@H](C(=O)N1C[C@@H]2CCC[C@@H]2[C@H]1C(=O)NC(CC(F)F)C(=O)C(=O)NC1CC1)C(C)C (some centres undefined)
220

Next compound: CCC[C@H](NC(=O)[C@@H]1[C@H]2CCC[C@H]2CN1C(=O)[C@@H](NC(=O)[C@@H](NC(=O)c1cnccn1)C(C)C)C(C)(C)C)C(=O)C(=O)NC(C)CC (some centres undefined)
210

---

TESTED_SYSTEM: NS3 protease (Hepatitis C virus)
EXPERIMENT_SUMMARY: Inhibitory activity against HCV protease using replicon assay […]
EXPERIMENTAL_READOUT: IC50
Answer format: value, then unit.

What IC50 value was documented for this molecule, "CC(C)[C@H](NC(=O)c1cnccn1)C(=O)N[C@H](C(=O)N1C[C@@H]2CCC[C@@H]2[C@H]1C(=O)N[C@@H](CC(F)F)C(=O)C(=O)N[C@@H](C)c1ccccc1)C(C)C" ?
910 nM

Another molecule to look at: "CC(C)[C@H](NC(=O)c1cnccn1)C(=O)N[C@H](C(=O)N1C[C@@H]2CCC[C@@H]2[C@H]1C(=O)N[C@@H](CC(F)F)C(=O)C(=O)N[C@@H](C)c1ccccc1)C(C)(C)C"
630 nM

// next record CCC(C)NC(=O)C(=O)[C@H](CC(F)F)NC(=O)[C@@H]1[C@H]2CCC[C@H]2CN1C(=O)[C@@H](NC(=O)[C@@H](NC(=O)c1cnccn1)C(C)C)C(C)(C)C (stereo partly drawn)
2610 nM

---

I'd be grateful if you could share measured pIC50 for these entries.
TESTED_SYSTEM: NS3 protease (Hepatitis C virus)
EXPERIMENT_SUMMARY: Inhibitory activity against Protease using replicon assay […] at 25 uM concentration
To interpret pIC50, take it as minus log10 of a concentration measured in moles per litre.

# input compound: CCC[C@H](NC(=O)[C@@H]1[C@H]2CCC[C@H]2CN1C(=O)[C@@H](NC(=O)[C@@H](NC(=O)c1cnccn1)C(C)C)C(C)(C)C)C(=O)C(=O)NC(C)CC (some centres not stated) ; wanted: its pIC50
5.46

Please do the same for CC(C)[C@H](NC(=O)c1cnccn1)C(=O)N[C@H](C(=O)N1C[C@@H]2CCC[C@@H]2[C@H]1C(=O)NC(CC(F)F)C(=O)C(=O)NC1CC1)C(C)C (some centres not stated) as well.
5.42
